B1: r4_43_TrROS_Hall (parent)
chain: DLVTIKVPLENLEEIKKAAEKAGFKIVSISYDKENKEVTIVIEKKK

- Variants of: B1
- assay.notes: folding stability dG (cDNA display proteolysis); higher = more stable
- measurement.conditions: PBS, room temperature
Listed here are variants together with their documented folding stability dG.
reported.endpoint: folding stability dG (kcal/mol)

> print(dat)
                            monomer.sequence  experimental.result
 1  DLVTIKVPLENLEEIKKAAEKAGFKIVSISYDKENKEVTIVIEDKK [K44D]                 3.54
 2  DLVTIKVPLENLEEIKKAAEKAGFKIVPISYDKENKEVTIVIEKKK [S28P]                 2.51
 3  DLVTIKGPLENLEEIKKAAEKAGFKIVSISYDKENKEVTIVIEKKK [V7G]                 3.46
 4  DLVTIKVPLENLEEIKKAAEKAGFKIVSISYDKENEEVTIVIEKKK [K36E]                 3.22
 5  DLVTIKVPLENLEEIKKCAEKAGFKIVSISYDKENKEVTIVIEKKK [A18C]                 3.97
 6  DLVTIKVPLENLEEIKKAAEKAGFKIVSISYDKSNKEVTIVIEKKK [E34S]                 3.86
 7  DLVTIKRPLENLEEIKKAAEKAGFKIVSISYDKENKEVTIVIEKKK [V7R]                  3.3
 8  DLVTIKVPLENLEEIKKAAEKAGFKIVSISYDKENKEVTIVIETKK [K44T]                 4.11
 9  DLVTIKVPLENLEEIKKAAEKAGFKIVSIRYDKENKEVTIVIEKKK [S30R]                 3.62
10  DLVTIKVPLENLMEIKKAAEKAGFKIVSISYDKENKEVTIVIEKKK [E13M]                 3.68
11  DLVTIKVPLYNLEEIKKAAEKAGFKIVSISYDKENKEVTIVIEKKK [E10Y]                 3.77
12  DLVTIKVPLENLEEIKKAAEKAGFKIVSISYDKENKEVTVVIEKKK [I40V]                 3.81
13  DLVTIKVPLENLEKIKKAAEKAGFKIVSISYDKENKEVTIVIEKKK [E14K]                 3.43
14  DLVTIKVPLENLEEIKKAAHKAGFKIVSISYDKENKEVTIVIEKKK [E20H]                  3.6
15  DLVTIKVPLENLWEIKKAAEKAGFKIVSISYDKENKEVTIVIEKKK [E13W]                 4.08
16  DLVTIKVPLENLEEIKKAAEKGGFKIVSISYDKENKEVTIVIEKKK [A22G]                 3.52
17  DLVTIKVPLENLEEIKKAAEKAGFKIVSISYDKDNKEVTIVIEKKK [E34D]                 3.75
18  DLVTIKVPLENLEEIKKAAEKKGFKIVSISYDKENKEVTIVIEKKK [A22K]                 3.58
19  DLVTIKVPLENLEEIKKAAEKDGFKIVSISYDKENKEVTIVIEKKK [A22D]                 3.13
20  DLVTIKVPLENLEEIKKAPEKAGFKIVSISYDKENKEVTIVIEKKK [A19P]                 1.44
21  DLVTIKVPLENLEEIKKAAEKAGFKIVSISYDKWNKEVTIVIEKKK [E34W]                 3.96
22  DLVTIKWPLENLEEIKKAAEKAGFKIVSISYDKENKEVTIVIEKKK [V7W]                 3.44
23  DLVEIKVPLENLEEIKKAAEKAGFKIVSISYDKENKEVTIVIEKKK [T4E]                  3.5
24  DLVTIHVPLENLEEIKKAAEKAGFKIVSISYDKENKEVTIVIEKKK [K6H]                 3.71
25  DLVTIKVPLMNLEEIKKAAEKAGFKIVSISYDKENKEVTIVIEKKK [E10M]                 4.03
26  DLVTIKVPLENLEEIKKAAEKAGFKIVSISYDCENKEVTIVIEKKK [K33C]                 3.44
27  DLVTIKVPLETLEEIKKAAEKAGFKIVSISYDKENKEVTIVIEKKK [N11T]                 3.59
28  DLVTIKVPLENLEEIKKADEKAGFKIVSISYDKENKEVTIVIEKKK [A19D]                 1.76
29  DLPTIKVPLENLEEIKKAAEKAGFKIVSISYDKENKEVTIVIEKKK [V3P]                 2.93
30  DGVTIKVPLENLEEIKKAAEKAGFKIVSISYDKENKEVTIVIEKKK [L2G]                 3.42
31  DLVTIKVPLENLEEIKKAAEKAGFKIVSISYDKENKEVMIVIEKKK [T39M]                 3.52
32  DLVTIKVPLENLEEIKKAAEKAEFKIVSISYDKENKEVTIVIEKKK [G23E]                 3.18
33  DAVTIKVPLENLEEIKKAAEKAGFKIVSISYDKENKEVTIVIEKKK [L2A]                  3.4
34  DLVTIKVPLENLEEIKKAAEKAGRKIVSISYDKENKEVTIVIEKKK [F24R]                 2.77
35  DLVTIKVPLENLEEIKKAWEKAGFKIVSISYDKENKEVTIVIEKKK [A19W]                 3.99
36  DLVTIKVPLENLEEIEKAAEKAGFKIVSISYDKENKEVTIVIEKKK [K16E]                 3.29
37  DLVTIKVPLENLENIKKAAEKAGFKIVSISYDKENKEVTIVIEKKK [E14N]                 3.83
38  DLVTIKVPLENLEEIKKAAEKAGFKIVSISYDKENKEVTIVWEKKK [I42W]                 4.19
39  DLVTIKVPLENLEEIKKAAEKAGFKIVSISYDKENKEVTNVIEKKK [I40N]               -0.494
40  DLVTIKVPLENLEEIKKAAEKAGFKIVSISYDKEMKEVTIVIEKKK [N35M]                 3.93
41  DLVTIKVPLNNLEEIKKAAEKAGFKIVSISYDKENKEVTIVIEKKK [E10N]                 4.02
42  DLVTIKDPLENLEEIKKAAEKAGFKIVSISYDKENKEVTIVIEKKK [V7D]                 1.97
43  DLVTIKVPLENAEEIKKAAEKAGFKIVSISYDKENKEVTIVIEKKK [L12A]                 3.63
44  DLVTIKVPLEDLEEIKKAAEKAGFKIVSISYDKENKEVTIVIEKKK [N11D]                  3.4
45  DLVTIKVPLENLEEIKVAAEKAGFKIVSISYDKENKEVTIVIEKKK [K17V]                 3.69
46  DLVTIKVILENLEEIKKAAEKAGFKIVSISYDKENKEVTIVIEKKK [P8I]                  3.5
